biological target: JAK1 (Homo sapiens); assay: JAK1 kinase ADP-Glo assay (Example 59); assay type: biochemical; set-up: purchased Invitrogen PV4774; conditions: JAK1 (Invitrogen) 4 nM, ATP 20 μM, IRS1 0.05 mg/mL, 25° C. 60 min, read-out: IC50 (nM), JAK1 Experiment
Sequence (P23458 866-1154 limits assumed): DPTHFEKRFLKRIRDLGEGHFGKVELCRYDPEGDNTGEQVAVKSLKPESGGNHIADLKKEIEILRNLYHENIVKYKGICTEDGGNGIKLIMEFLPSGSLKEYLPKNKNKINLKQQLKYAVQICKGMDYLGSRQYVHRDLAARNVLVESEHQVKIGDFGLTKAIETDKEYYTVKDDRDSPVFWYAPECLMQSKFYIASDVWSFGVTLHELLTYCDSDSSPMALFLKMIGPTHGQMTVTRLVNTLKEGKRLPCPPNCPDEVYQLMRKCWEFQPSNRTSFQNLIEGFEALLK

COMPOUND: CCc1cc(O)c(F)cc1-c1ccc2c(-c3nc4c([nH]3)CN(C3CCC(O)CC3)C4)n[nH]c2c1 (stereo not shown)
MEASUREMENT TARGET: JAK1 (Homo sapiens)
IC50, nM: 0.122
//
COMPOUND: CCc1cc(O)c(F)cc1-c1ccc2c(-c3nc4c([nH]3)CN(C(=O)c3cnn(C)c3)C4)n[nH]c2c1
MEASUREMENT TARGET: JAK1 (Homo sapiens)
IC50, nM: 0.125
//
COMPOUND: CCc1cc(O)c(F)cc1-c1ccc2c(-c3nc4c([nH]3)CN(C(=O)c3cnc(N5CCCCC5)cn3)C4)n[nH]c2c1
MEASUREMENT TARGET: JAK1 (Homo sapiens)
IC50, nM: 0.806
//
COMPOUND: CCc1cc(O)c(F)cc1-c1ccc2c(-c3nc4c([nH]3)CN(C(=O)C3CCC3)C4)n[nH]c2c1
MEASUREMENT TARGET: JAK1 (Homo sapiens)
IC50, nM: 0.162
//
COMPOUND: CCc1cc(O)c(F)cc1-c1ccc2c(-c3nc4c([nH]3)CN(C(=O)C3CC(O)C3)C4)n[nH]c2c1 (stereo not shown)
MEASUREMENT TARGET: JAK1 (Homo sapiens)
IC50, nM: 0.146
//
COMPOUND: CCc1cc(O)c(F)cc1-c1ccc2c(-c3nc4c([nH]3)CN(Cc3cnccn3)C4)n[nH]c2c1
MEASUREMENT TARGET: JAK1 (Homo sapiens)
IC50, nM: 0.12
//
COMPOUND: CCc1cc(O)c(F)cc1-c1ccc2c(-c3nc4c([nH]3)CN(C(=O)C3CC3)C4)n[nH]c2c1
MEASUREMENT TARGET: JAK1 (Homo sapiens)
IC50, nM: 0.128

----------
biological target: TYK2 (Homo sapiens); test: TYK2 kinase ADP-Glo assay (Example 60)
Sequence (P29597 871-1187 limits assumed): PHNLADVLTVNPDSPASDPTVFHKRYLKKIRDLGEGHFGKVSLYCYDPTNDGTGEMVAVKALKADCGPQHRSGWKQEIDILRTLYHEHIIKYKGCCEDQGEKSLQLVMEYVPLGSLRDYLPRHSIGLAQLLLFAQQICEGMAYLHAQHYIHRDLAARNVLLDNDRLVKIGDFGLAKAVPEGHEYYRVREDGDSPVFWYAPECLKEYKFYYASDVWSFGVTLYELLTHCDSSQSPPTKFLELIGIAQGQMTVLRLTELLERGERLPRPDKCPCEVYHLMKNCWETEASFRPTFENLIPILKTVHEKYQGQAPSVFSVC

MOLECULE: CCc1cc(O)c(F)cc1-c1ccc2c(-c3nc4c([nH]3)CN(Cc3cnn(C)c3)C4)n[nH]c2c1 [MDI-221]
IC50 / nM: 7.6

MOLECULE: CCc1cc(O)c(F)cc1-c1ccc2c(-c3nc4c([nH]3)CN(C(=O)N3CCOCC3)C4)n[nH]c2c1 [MDI-234]
IC50 / nM: 0.438

MOLECULE: CCc1cc(O)c(F)cc1-c1ccc2c(-c3nc4c([nH]3)CN(C(=O)N3CCCCC3)C4)n[nH]c2c1 [MDI-233]
IC50 / nM: 3.5

MOLECULE: CCc1cc(O)c(F)cc1-c1ccc2c(-c3nc4c([nH]3)CN(C(=O)CC#N)C4)n[nH]c2c1 [MDI-256]
IC50 / nM: 6.14

MOLECULE: CCc1cc(O)c(F)cc1-c1ccc2c(-c3nc4c([nH]3)CN(C(=O)N3CCN(CC)CC3)C4)n[nH]c2c1 [MDI-236]
IC50 / nM: 0.0954

MOLECULE: CCc1cc(O)c(F)cc1-c1ccc2c(-c3nc4c([nH]3)CN(C(=O)[C@H]3CCCN3)C4)n[nH]c2c1 [MDI-263]
IC50 / nM: 0.717

MOLECULE: CCc1cc(O)c(F)cc1-c1ccc2c(-c3nc4c([nH]3)CN(S(=O)(=O)C3CC3)C4)n[nH]c2c1 [MDI-218]
IC50 / nM: 1.75

----------
biological target: JAK2 (Homo sapiens); experiment: JAK2 kinase ADP-Glo assay (Example 59)
Sequence (O60674 808-1132 limits assumed): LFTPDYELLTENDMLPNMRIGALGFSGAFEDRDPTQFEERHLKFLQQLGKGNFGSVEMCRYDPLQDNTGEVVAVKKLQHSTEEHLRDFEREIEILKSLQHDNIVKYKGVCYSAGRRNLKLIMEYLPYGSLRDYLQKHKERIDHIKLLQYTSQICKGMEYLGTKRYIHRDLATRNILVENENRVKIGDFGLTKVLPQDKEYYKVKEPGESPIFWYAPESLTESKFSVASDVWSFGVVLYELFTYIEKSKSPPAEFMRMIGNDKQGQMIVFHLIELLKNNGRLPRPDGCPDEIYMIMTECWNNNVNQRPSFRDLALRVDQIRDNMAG
pIC50: −log10 of the molar value.
A collection of compounds and their measured pIC50

COMPOUND: CCc1cc(O)c(F)cc1-c1ccc2c(-c3nc4c([nH]3)CN(S(=O)(=O)c3ccccc3)C4)n[nH]c2c1
MEASUREMENT TARGET: JAK2 (Homo sapiens)
pIC50: 9.25
//
COMPOUND: CCc1cc(O)c(F)cc1-c1ccc2c(-c3nc4c([nH]3)CN(C(=O)C3CC(O)C3)C4)n[nH]c2c1 (stereo not shown)
MEASUREMENT TARGET: JAK2 (Homo sapiens)
pIC50: 9.78
//
COMPOUND: CCc1cc(O)ccc1-c1ccc2c(-c3nc4c([nH]3)CN(C(=O)c3cnc(N5CCN(C)CC5)cn3)C4)n[nH]c2c1
MEASUREMENT TARGET: JAK2 (Homo sapiens)
pIC50: 9.80
//
COMPOUND: CCc1cc(O)c(F)cc1-c1ccc2c(-c3nc4c([nH]3)CN(C(=O)c3cnc(N5CCN(C)CC5)cn3)C4)n[nH]c2c1
MEASUREMENT TARGET: JAK2 (Homo sapiens)
pIC50: 9.75
//
COMPOUND: CCc1cc(O)c(F)cc1-c1ccc2c(-c3nc4c([nH]3)CN(C(=O)C3CCN(C)CC3)C4)n[nH]c2c1
MEASUREMENT TARGET: JAK2 (Homo sapiens)
pIC50: 9.68
//
COMPOUND: CCc1cc(O)c(F)cc1-c1ccc2c(-c3nc4c([nH]3)CN(Cc3cnccn3)C4)n[nH]c2c1
MEASUREMENT TARGET: JAK2 (Homo sapiens)
pIC50: 9.80
//
COMPOUND: CCc1cc(O)c(F)cc1-c1ccc2c(-c3nc4c([nH]3)CN(C(=O)C3CC3)C4)n[nH]c2c1
MEASUREMENT TARGET: JAK2 (Homo sapiens)
pIC50: 9.78

----------
target: JAK2 (Homo sapiens, UniProt O60674); assay: JAK2 kinase ADP-Glo assay (Example 60)
Sequence (O60674 826-1132 limits assumed): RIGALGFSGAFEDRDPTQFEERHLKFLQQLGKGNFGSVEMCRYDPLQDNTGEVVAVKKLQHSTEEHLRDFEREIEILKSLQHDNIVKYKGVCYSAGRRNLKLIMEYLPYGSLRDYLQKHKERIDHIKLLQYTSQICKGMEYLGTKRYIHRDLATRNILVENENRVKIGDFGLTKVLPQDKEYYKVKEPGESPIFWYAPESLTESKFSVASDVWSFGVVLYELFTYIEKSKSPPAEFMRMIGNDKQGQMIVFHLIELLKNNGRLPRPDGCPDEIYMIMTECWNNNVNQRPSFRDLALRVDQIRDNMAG
pIC50: −log10 of the molar value.

MOLECULE: CCc1cc(O)c(F)cc1-c1ccc2c(-c3nc4c([nH]3)CN(C(=O)[C@@H]3CCCN3)C4)n[nH]c2c1
pIC50: 8.81
//
MOLECULE: CCc1cc(O)c(F)cc1-c1ccc2c(-c3nc4c([nH]3)CN(CC3CCC3)C4)n[nH]c2c1
pIC50: 8.95
//
MOLECULE: CCc1cc(O)c(F)cc1-c1ccc2c(-c3nc4c([nH]3)CN(C(=O)CC3CC3)C4)n[nH]c2c1
pIC50: 9.45
//
MOLECULE: CCc1cc(O)c(F)cc1-c1ccc2c(-c3nc4c([nH]3)CN(C(=O)[C@H]3CCCN3)C4)n[nH]c2c1
pIC50: 9.14
//
MOLECULE: CCc1cc(O)c(F)cc1-c1ccc2c(-c3nc4c([nH]3)CN(C(=O)OC)C4)n[nH]c2c1
pIC50: 8.59
//
MOLECULE: CCc1cc(O)c(F)cc1-c1ccc2c(-c3nc4c([nH]3)CN(C(=O)N3CCC(C#N)C3)C4)n[nH]c2c1 (stereo not shown)
pIC50: 9.01
//
MOLECULE: CCc1cc(O)c(F)cc1-c1ccc2c(-c3nc4c([nH]3)CN(C(=O)N3CCCC3)C4)n[nH]c2c1
pIC50: 8.93
//
MOLECULE: CCc1cc(O)c(F)cc1-c1ccc2c(-c3nc4c([nH]3)CN(C3CCCC3)C4)n[nH]c2c1
pIC50: 9.12
//
MOLECULE: CCc1cc(O)c(F)cc1-c1ccc2c(-c3nc4c([nH]3)CN(C(=O)NCCO)C4)n[nH]c2c1
pIC50: 9.25
//
MOLECULE: CCc1cc(O)c(F)cc1-c1ccc2c(-c3nc4c([nH]3)CN(C(=O)NC)C4)n[nH]c2c1
pIC50: 9.01
//
MOLECULE: CCc1cc(O)c(F)cc1-c1ccc2c(-c3nc4c([nH]3)CN(C(=O)N3CC(O)C3)C4)n[nH]c2c1
pIC50: 9.04
//
MOLECULE: CCc1cc(O)c(F)cc1-c1ccc2c(-c3nc4c([nH]3)CN(C(=O)NC3CC3)C4)n[nH]c2c1
pIC50: 8.89
//
MOLECULE: CCc1cc(O)c(F)cc1-c1ccc2c(-c3nc4c([nH]3)CN(C3CCOCC3)C4)n[nH]c2c1
pIC50: 9.41
//
MOLECULE: CCc1cc(O)c(F)cc1-c1ccc2c(-c3nc4c([nH]3)CN(S(=O)(=O)C3CCCC3)C4)n[nH]c2c1
pIC50: 8.86
//
MOLECULE: CCc1cc(O)c(F)cc1-c1ccc2c(-c3nc4c([nH]3)CN(C(=O)N3CCOCC3)C4)n[nH]c2c1
pIC50: 9.13
//
MOLECULE: CCc1cc(O)c(F)cc1-c1ccc2c(-c3nc4c([nH]3)CN(C(=O)N3CC[C@H](O)C3)C4)n[nH]c2n1
pIC50: 7.43
